Assignment: determine reported inhibition for the given molecules.
Protocol text: VP16 transactivation reporter inhibitors, counter-screen for LRH-1 inverse agonist project, cell-based, luminescence, high throughput (AID 651615)
Condition description: Gal4-VP16 luciferase reporter cells, at 3.6 µM, stronger effect = higher value
Calls of active or inactive are those of the source. Rule as the data show it: active = inhibition above about 33%; inactive = the rest.

Field request: inhibition | item: O=C(CC1CS(=O)(=O)CC1CC(=O)Nc1ccc2c(c1)OCCO2)Nc1ccc2c(c1)OCCO2 (stereo not given)
-53.8% (inactive)

Also need CCOc1ccc(S(=O)(=O)Nc2nc3ccccc3nc2N2CCN(C)CC2)cc1 , thanks.
-4.2% (inactive)

What do you get for Cc1ccc(C(=O)Sc2cccccc2=O)cc1 ?
96.8% (active)

Another: CSC1SCC2C(=O)N(C)C(C(C)C)C(=O)OCC(NC(=O)c3cnc4ccccc4n3)C(=O)NC(C)C(=O)N(C)C1C(=O)N(C)C(C(C)C)C(=O)OCC(NC(=O)c1cnc3ccccc3n1)C(=O)NC(C)C(=O)N2C (stereo not given)
97.3% (active)

Next up: COC(=O)c1ccc(NC(=O)CN2CCC(NC(=O)c3ccccc3F)CC2)cc1
-4.8% (inactive)

* * *

Protocol text: StAR promoter reporter inhibitors, counter-screen for LRH-1 inverse agonist project, cell-based, luminescence, high throughput (AID 651611)
Condition description: StAR promoter luciferase reporter counterscreen, at 3.6 µM
Activity calls are given as the source filed them. No stated cut-off is given here; in the data, active means inhibition above about 28%; inactive means the rest.
Permitted responses: yes (1) (active), no (0) (inactive)

Test call, this molecule: CN(c1ncnc(N)c1[N+](=O)[O-])C1CCCCC1
yes (1)

Please give the result for CCOC(=O)c1cc(-c2ccncc2)nc2c1c(C)nn2-c1ccccn1 too.
no (0)

Continue with Cc1cccc(-c2cc(NCCc3cccnc3)n3nccc3n2)c1
no (0)

Now this one: Cc1ccc(C(=O)C(C(=O)/C=C/c2ccccc2)=C2SCCCS2)cc1
yes (1)

Next: CCOC(=O)c1ccc(Nc2nc(-c3cccnc3)nc3ccccc23)cc1
yes (1)

// same read-out, input: CCOc1ccc(CCNC(=O)COC(=O)c2cccc(S(=O)(=O)N3CCCC3)c2)cc1OCC
no (0)

N#Cc1cc([N+](=O)[O-])ccc1NC(=O)COC(=O)C1CCC(=O)N1 (stereo not given) , same question.
no (0)

Another molecule to check: CCn1cc(/C=C/c2cc[n+](C)cc2)c2ccccc21
yes (1)

Do the same for O=C1CC(c2ccc3c(c2)OCCO3)Oc2ccc([N+](=O)[O-])cc21 (stereo not given) please
no (0)

Input Cc1ccccc1N=C1NC(=O)/C(=C/c2cccnc2)S1
no (0)

Try this molecule next: COc1ccc(CCNC(=O)CN2C(=O)C3(OCCCO3)c3ccccc32)cc1OC
no (0)

Can you handle Cc1ccc(C(=O)N/N=C/c2ccc([N+](=O)[O-])s2)cc1 next?
yes (1)

Note, next up: COc1ccc(C2(C)NC(=O)N(CC(=O)Nc3ccc(C)cc3Br)C2=O)cc1OC (stereo not given)
no (0)

Also need Cn1c(=O)n(C)c2cc(NC(=O)CCl)ccc21 , thanks.
yes (1)

Also NNC(=O)C(Cc1ccc(O)cc1)N1Cc2ccccc2C1=O (stereo not given) ?
no (0)

* * *

Test system: transactivating tegument protein VP16 (Human herpesvirus 1)
Protocol text: VP16 transactivation reporter inhibitors, counter-screen for SRC2 inhibitor project, cell-based, luminescence, single concentration (AID 652007)
Condition description: cell-based VP16 transactivation luciferase reporter, at 8.9 µM, stronger effect = higher value
Reported metric: inhibition (%)
Give the value in % but do not write % after it.

Look up inhibition for this compound: C=C(C(=O)c1ccccc1)C(c1ccccc1)C(C)C(=O)c1ccccc1 (stereo not drawn)
28.8

And then COc1ccc(NC(=O)COc2coc(CN3CCN(c4ccccc4)CC3)cc2=O)cc1 , what is it?
-6.47

What about this compound? Cc1cccc(NC(=O)c2nc(S(=O)(=O)Cc3ccccc3)ncc2Cl)c1
38.7

Please do the same for COc1cc(OC)cc(C(=O)NCC2CCN(C(=O)C(=O)c3cccs3)CC2)c1 as well.
18.9

And CCN(c1ccc(OC)cc1)c1ncnc2nc[nH]c12 ?
-3.42

Queued: COc1ccc(Cc2nnc(N/N=C/c3ccccc3O)[nH]c2=O)cc1OC
21.2

Queued: CC(=O)NC(c1cccc([N+](=O)[O-])c1)c1ccc2cccnc2c1O (stereo not drawn)
0.91

Request: O=C(NCCc1ccccc1)c1ccc2c(c1)OCO2
-13.4

Please do the same for CCOc1ccc(-c2cc(CCCC(=O)Nc3cc(OC)ccc3OC)no2)cc1 as well.
47.9

Next up: CC(C)[C@H](NC(=O)[C@@H]1Cc2ccccc2CN1)C(=O)Nc1ccc2c(c1)OCCO2
-21

Now the compound CC(=O)N(CCc1ccccc1)c1ccc2c(c1)C1CC2CCN1C(=O)OCc1ccccc1 (stereo not drawn)
17

How about CC1=C(C(=O)OCc2ccc3c(c2)OCO3)C(c2ccc(F)cc2)NC(=O)N1 (stereo not drawn) ?
16.1

Ok, now Cc1ccc(NC(=O)CSc2ncnc3ccccc23)cc1S(=O)(=O)N1CCCCCC1
12.7

What do you have for Cc1ccc(C(=O)Nc2nc3ccccc3[nH]2)cc1 ?
-3.8

Moving on to the next compound: COc1cccc(NC(=O)Nc2nnc(N3C(C)CCCC3C)s2)c1 (stereo not drawn)
-51.2

Same question, O=C(O)CCCc1nc(-c2ccc(Cl)cc2)no1 this time
20.7

Also check CC1CCCCN1c1ncnc(N)c1[N+](=O)[O-] (stereo not drawn)
4.43

For O=C(c1ccc(Cl)cc1)C(CN1CCCC1)c1ccccc1 (stereo not drawn) then?
26.1

Next entry: O=S(=O)(c1ccccc1)N1CCC(O)(CSc2ccc(F)cc2)CC1
-1.83

What would you report for Cc1ccc(C2(CCNCc3ccco3)CCOC(C(C)C)C2)cc1 (stereo not drawn) ?
-11.6

Another compound: CCn1c(C)cc(C(=O)CN2C(=O)c3ccccc3S2(=O)=O)c1C
46.9

// query: COc1ccc(C(=O)Nn2c(SCC(=O)N3CCC(C)CC3)nc3ccccc3c2=O)cc1
23.9

Again, but for COc1ccc(OC)c(N(CCN2C(=O)c3ccccc3C2=O)C(=O)CCl)c1
30.9

For O=C(NC(=O)c1ccccc1)Nc1ccccn1 then?
4.41

Also, CC[n+]1cccc(-c2nc3ccccc3s2)c1 please.
9.34

// next record O=C(CCl)N(c1ccccc1)C1CCCCC1
55.6

Also need CCN1CCN(C(=S)c2ccc(-c3ccccc3)cc2)CC1 , thanks.
15.4

Can you handle COc1ccc(CNn2c(-c3cccs3)nc3ccccc3c2=O)cc1OC next?
-9.43

From: PubChem BioAssay
